Experiment: Serum pharmacokinetics after a single oral dose (24 h study), LC-MS/MS, noncompartmental analysis
Format: in vivo, Sprague Dawley rats
Settings: male, Sprague Dawley; single oral dose 20 mg/kg, rat serum, 0 to 24 h, median, n=4; read-out: AUC (0-tlast)
TEST_READOUT: AUC(0-t) (ng·h/mL)
Give your result in ng·h/mL as a bare value.

# get_value(readout='AUC(0-t)', item= CN1CCN(CCOc2cc(OC3CCOCC3)c3c(Nc4c(Cl)ccc5c4OCO5)ncnc3c2)CC1 [saracatinib, Saracatinib] ) 6990

###

Assay: Serum pharmacokinetics after a single oral dose (24 h study), LC-MS/MS, noncompartmental analysis
Format: in vivo, Sprague Dawley rats
Settings: male, Sprague Dawley; single oral dose 20 mg/kg, rat serum, median, n=4
TEST_READOUT: Vd/F
Note: a bare number is incomplete; add the unit.

Fill in the blank: the reported Vd/F of `CN1CCN(CCOc2cc(OC3CCOCC3)c3c(Nc4c(Cl)ccc5c4OCO5)ncnc3c2)CC1` is ____. 15.6 L/kg

###

Assay: Serum pharmacokinetics after a single oral dose (24 h study), LC-MS/MS, noncompartmental analysis
Type: in vivo, Sprague Dawley rats
Conditions: male, Sprague Dawley; single oral dose 20 mg/kg, rat serum, median, n=4
TEST_READOUT: AUC(0-inf) (ng·h/mL)
Value expressed in ng·h/mL; do not type the unit.

Entry CN1CCN(CCOc2cc(OC3CCOCC3)c3c(Nc4c(Cl)ccc5c4OCO5)ncnc3c2)CC1 [saracatinib, Saracatinib] : reported AUC(0-inf) = ? 7060

###

Assay: Serum pharmacokinetics after a single oral dose (24 h study), LC-MS/MS, noncompartmental analysis
Format: in vivo, Sprague Dawley rats
Details: male, Sprague Dawley; single oral dose 20 mg/kg, rat serum, median, n=4
TEST_READOUT: Cmax (ng/mL)
The reply should contain only the number, in ng/mL.

So what does the record say about Cmax for `CN1CCN(CCOc2cc(OC3CCOCC3)c3c(Nc4c(Cl)ccc5c4OCO5)ncnc3c2)CC1` ? 954

###

Assay: Serum pharmacokinetics after a single oral dose (24 h study), LC-MS/MS, noncompartmental analysis
Assay type: in vivo, Sprague Dawley rats
Settings: male, Sprague Dawley; single oral dose 20 mg/kg, rat serum, median, n=4
TEST_READOUT: CL/F (mL/min/kg)
Numbers only here, please. The scale is mL/min/kg.

Which CL/F is listed for CN1CCN(CCOc2cc(OC3CCOCC3)c3c(Nc4c(Cl)ccc5c4OCO5)ncnc3c2)CC1 [saracatinib, Saracatinib] ? 47.2

###

Assay: Serum pharmacokinetics after a single oral dose (24 h study), LC-MS/MS, noncompartmental analysis
Format: in vivo, Sprague Dawley rats
Conditions: male, Sprague Dawley; single oral dose 20 mg/kg, rat serum, median, n=4
TEST_READOUT: k el (s⁻¹)
# output: bare number, implied unit s⁻¹

Which measured k el value corresponds to CN1CCN(CCOc2cc(OC3CCOCC3)c3c(Nc4c(Cl)ccc5c4OCO5)ncnc3c2)CC1 [saracatinib, Saracatinib] ? 5e-05

###

Assay: 7-day repeated daily oral dosing study: serum and hippocampal concentrations
Assay type: in vivo, Sprague Dawley rats
Conditions: male, Sprague Dawley, rat, hippocampus; repeated oral dosing 20 mg/kg/day, day 7; read-out: Hippocampal saracatinib concentration
TEST_READOUT: concentration at 7 day
Please give the number followed by its unit.

Value lookup for concentration at 7 day; key = `CN1CCN(CCOc2cc(OC3CCOCC3)c3c(Nc4c(Cl)ccc5c4OCO5)ncnc3c2)CC1` 271 ng/g

Entry source: paper PMC10666625
